Provenance of the data: patent US6586402B1

Provide the reported pKi of each item.
- Test System: LH-RH receptors (membrane fractions of pituitaries from female Sprague Dawley rats) (rat (female Sprague Dawley)) (UniProt P30969)
- Sequence (P30969 whole entry): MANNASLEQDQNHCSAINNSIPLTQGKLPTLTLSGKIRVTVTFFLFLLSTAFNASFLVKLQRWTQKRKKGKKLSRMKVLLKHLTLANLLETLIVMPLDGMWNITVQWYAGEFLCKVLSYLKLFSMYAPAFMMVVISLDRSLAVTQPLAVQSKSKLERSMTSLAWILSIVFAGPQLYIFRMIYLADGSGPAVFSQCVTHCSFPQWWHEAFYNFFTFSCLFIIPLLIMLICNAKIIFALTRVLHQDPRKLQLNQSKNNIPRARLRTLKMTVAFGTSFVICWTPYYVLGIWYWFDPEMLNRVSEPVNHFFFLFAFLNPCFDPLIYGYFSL
- Test Name: competition with [125I]-buserelin, rat pituitary membranes; Ki by Cheng-Prusoff
Square brackets hold non-standard residues; d marks the D form. dPhe(4-Cl) = N[C@H](Cc1ccc(Cl)cc1)C(=O)O; dCit = NC(=O)NCCC[C@@H](N)C(=O)O; tBuAla = CC(C)(C)C[C@H](N)C(=O)O; d3Pal = N[C@H](Cc1cccnc1)C(=O)O

Annotate the binder XHWSYXXRPG (pGlu at 1; D-Npg at 6; Npg at 7; C-terminal Gly-NH2 (amide)) [pGlu-His-Trp-Ser-Tyr-D-Npg-Npg-Arg-Pro-Gly-NH2] with its measured pKi.
8.2 -log Ki

Please supply the value of reported pKi for the item XHWSYXXRPG (pGlu at 1; D-Phe at 6; Npg at 7; C-terminal Gly-NH2 (amide)) [pGlu-His-Trp-Ser-Tyr-D-Phe-Npg-Arg-Pro-Gly-NH2]
8.63 -log Ki

Retrieve pKi measured for XHWSYXXRPG (pGlu at 1; D-Ala at 6; Npg at 7; C-terminal Gly-NH2 (amide)) [pGlu-His-Trp-Ser-Tyr-D-Ala-Npg-Arg-Pro-Gly-NH2] and print it.
9.57 -log Ki

Indicate the recorded pKi value for this binder: Ac-X[dPhe(4-Cl)][d3Pal]SY[dCit][tBuAla]RP[dA]-NH2 (not fully specified (residue 1); printed as AcD-Nal-D-pClPhe-D-Pal-Ser-Tyr-D-Cit-Npg-Arg-Pro-D-Ala-NH2; also: trifluoroacetate salt) [AcD-Nal-D-pClPhe-D-Pal-Ser-Tyr-D-Cit-Npg-Arg-Pro-D-Ala-NH2]
10.2 -log Ki
